The measured values listed here are drawn from ChEMBL document CHEMBL1141263.

# Tested on: L1210
# Measurement description: Cytotoxicity against mouse L1210 cells by microculture tetrazolium assay
# Assay type: functional, cell-based
Reported property: IC50 (µM)
Express the result in µM but write the number alone.

Data request: Field request: IC50 | item: COc1cc([C@@H]2c3cc4c(c(OC)c3[C@@H](O)[C@H]3COC(=O)[C@H]23)OCO4)cc(OC)c1OC
Data returned: 82
